Test system: DU-145 prostate
Test: NCI-60 one-dose screen, 48 h (100 = growth as untreated, 0 = no growth, -100 = all killed)
Details: 10 µM unless noted
Procedure: Cells are grown in 96 well plates and exposed to the test compound for 48 hours. Compounds are tested at a single concentration, which is 10^-5 M for most compounds. The reported endpoint is percent growth (GI% or GIPRCNT), where numbers from 0 - 100% represent growth inhibition, and numbers from -100% - 0 represent cell death. For example, a value of 40 represents 60% growth inhibition. A value of 0 means no net growth occurred over the course of the experiment. […]
About 83,000 compounds went through this panel and 20% of them were active in at least one assay; those are over-represented in the sample as a whole.
Class class 1: growth at least 70%. Class class 0: growth below 70%.

{"columns": ["smiles-notation", "assay-target", "group-label"],
 "data": [
  ["COc1cccc(-c2nn(-c3ccccc3)cc2-c2ccnc(N3CCN(C(=O)Nc4ccc(F)cc4)CC3)c2)c1", "DU-145 prostate", "class 0"],
  ["CCOC(=O)c1c(Nc2ccccc2)nn2c(N)c(C#N)c(-c3ccccc3)nc12", "DU-145 prostate", "class 1"],
  ["COc1cc(/C=C/C(=O)c2ccc(C)cc2)ccc1Oc1nc(NCCO)nc(N2CCOCC2)n1", "DU-145 prostate", "class 1"],
  ["O=C(Nc1nc2ccc(O)cc2s1)c1cccc(C(F)(F)F)c1", "DU-145 prostate", "class 0"],
  ["Cc1ccc(C(=O)Nc2cccc(C(F)(F)F)c2)cc1Nc1nc(-c2cnccn2)nc2c1cnn2C", "DU-145 prostate", "class 1"],
  ["CC(C)NC(=O)c1cc(-c2ccc(NC(=O)Nc3ccc(N4CCOCC4)c(C(F)(F)F)c3)cc2)nc2cccnc12", "DU-145 prostate", "class 1"],
  ["Cc1c(NC(=O)CSc2nc3sc4c(c3c(=O)n2-c2ccc(Cl)cc2)CCCC4)c(=O)n(-c2ccccc2)n1C", "DU-145 prostate", "class 1"],
  ["Cc1cccc2sc(/N=C(\\N)C(Cl)(Cl)Cl)nc12", "DU-145 prostate", "class 1"],
  ["N#Cc1c(-c2ccc(Cl)cc2)nc2c(-c3ccccc3)c(Nc3ccccc3)nn2c1N", "DU-145 prostate", "class 0"],
  ["CS(=O)(=O)c1ccc(-n2cc(/C=C/C(=O)c3ccc(NC(=O)CO[N+](=O)[O-])cc3)c(-c3ccc(Cl)cc3)n2)cc1", "DU-145 prostate", "class 1"],
  ["O=C(N/N=C/c1ccc[nH]1)c1[nH]c2ccc(Br)cc2c1-c1ccccc1", "DU-145 prostate", "class 0"],
  ["C/C(=C(/c1ccc(Cl)cc1)c1ccc(OCCN)cc1)c1ccc(C)cc1", "DU-145 prostate", "class 1"],
  ["CCOC(=O)c1csc(NC(=O)CSc2nc3sc4c(c3c(=O)n2-c2ccc(Cl)cc2)CCCC4)n1", "DU-145 prostate", "class 1"],
  ["N#Cc1nc(-c2ccccc2)oc1S(=O)(=O)N1CCN(CCc2ccccn2)CC1", "DU-145 prostate", "class 1"],
  ["O=C(CSc1nc2sc3c(c2c(=O)n1-c1ccc(Cl)cc1)CCCC3)NNC(=O)Nc1cccc(C(F)(F)F)c1", "DU-145 prostate", "class 0"],
  ["CCOC(=O)c1sc(N)c(C(=O)OCC)c1C", "DU-145 prostate", "class 0"],
  ["CN(C)CCCNc1c2ccccc2nc2c1oc1ccc(Cl)cc12", "DU-145 prostate", "class 0"],
  ["COc1ccc(C(=O)/C=C/c2ccc(OCc3ccc(Cl)cc3)c(OC)c2)cc1OC", "DU-145 prostate", "class 1"],
  ["N#Cc1c(-c2ccc(F)cc2)nc2c(C#N)c(Nc3ccccc3)nn2c1N", "DU-145 prostate", "class 1"]
]}

----------
System: HOP-62 NSCLC
Assay: NCI-60 one-dose screen, 48 h (100 = growth as untreated, 0 = no growth, -100 = all killed)
Conditions: 10 µM unless noted
The panel holds about 83,000 compounds, 20% with a hit somewhere; the sample as a whole holds those more often.
Recorded growth, one value per entry.
outcome-measure: growth (%)

{"columns": ["compound", "unit-name", "reported-result"],
 "data": [
  ["O=C1/C(=C/C2=Cc3ccccc3OC2)SC(=S)N1c1ccc(F)cc1", "%", 101],
  ["N#Cc1c(-c2ccc(Cl)cc2)nc(SCc2ccccc2)nc1N1CCNCC1", "%", 78.9],
  ["CCOc1ccc([C@H]2C(C(=O)c3ccc(Cl)cc3)C3(N[C@@H]2c2ccccc2)C(=O)Nc2ccc(Br)cc23)cc1 (stereo not given in full)", "%", 54.5],
  ["O=C(CN1CCOCC1)NNc1ncnc2ccccc12", "%", 115],
  ["O=C1Nc2cc(Cl)ccc2/C1=C\\c1ccc(OCc2ccc([N+](=O)[O-])cc2)cc1", "%", 79.8]
]}

----------
Tested on: SF-539 CNS
Assay: NCI-60 one-dose screen, 48 h (100 = growth as untreated, 0 = no growth, -100 = all killed)
Conditions: 10 µM unless noted
Method: Cells are grown in 96 well plates and exposed to the test compound for 48 hours. Compounds are tested at a single concentration, which is 10^-5 M for most compounds. The reported endpoint is percent growth (GI% or GIPRCNT), where numbers from 0 - 100% represent growth inhibition, and numbers from -100% - 0 represent cell death. For example, a value of 40 represents 60% growth inhibition. A value of 0 means no net growth occurred over the course of the experiment. […]
About 83,000 compounds went through this panel and 20% of them were active in at least one assay; those are over-represented in the sample as a whole.
Response field label: string, one of Satisfied (growth strictly below 20%) or Not satisfied.

{"columns": ["molecule", "assay-target", "group-label"],
 "data": [
  ["CN(C)CCCNc1c2ccccc2nc2c1oc1ccc(Cl)cc12", "SF-539 CNS", "Satisfied"],
  ["N#Cc1c(-c2ccc(Cl)cc2)nc(SCc2ccc([N+](=O)[O-])cc2)nc1N1CCNCC1", "SF-539 CNS", "Satisfied"],
  ["Cc1cc2nc3c4cc(Cl)ccc4n(CC(=S)NCCN(C)C)c3nc2cc1C", "SF-539 CNS", "Satisfied"],
  ["Clc1ccc2c(NCCCN3CCOCC3)c3oc4ccc(Cl)cc4c3nc2c1", "SF-539 CNS", "Not satisfied"],
  ["Clc1ccc(-c2cn3cc(Cc4ccc(Cl)c(Cl)c4)sc3n2)cc1", "SF-539 CNS", "Not satisfied"],
  ["Cc1cccc2sc(/N=C(\\N)C(Cl)(Cl)Cl)nc12", "SF-539 CNS", "Not satisfied"],
  ["CC(C)(O)c1cncc(-c2ccc3ncnc(N4CCc5cc(F)c(Cl)cc54)c3c2)c1", "SF-539 CNS", "Satisfied"],
  ["Nc1c(C(=O)Nc2ccc(Cl)cc2)sc2nc(-c3cnccn3)cc(-c3cccs3)c12", "SF-539 CNS", "Satisfied"],
  ["Fc1ccc(-c2cc3nc(C(Cl)Cl)nc(-c4ccc(Cl)cc4)n3n2)cc1", "SF-539 CNS", "Not satisfied"],
  ["CCOC(=O)c1c(Nc2ccccc2)nn2c(N)c(C#N)c(-c3ccccc3)nc12", "SF-539 CNS", "Not satisfied"],
  ["CSCCC(C(=O)O)N1C(=O)/C(=C/c2ccc(O)c(O)c2)SC1=S (stereo unspecified)", "SF-539 CNS", "Not satisfied"],
  ["N#Cc1c(-c2ccc(Cl)cc2)nc(SCc2ccccc2)nc1N1CCNCC1", "SF-539 CNS", "Not satisfied"],
  ["O=C(CSc1nc2sc3c(c2c(=O)n1-c1ccc(Cl)cc1)CCCC3)NNC(=O)Nc1cccc(C(F)(F)F)c1", "SF-539 CNS", "Not satisfied"],
  ["O=C(N/N=C/c1ccco1)c1[nH]c2ccc(Br)cc2c1-c1ccccc1", "SF-539 CNS", "Satisfied"],
  ["CN(C)CCCOc1c2ccc(Cl)cc2nc2c1oc1ccc(Cl)cc12", "SF-539 CNS", "Satisfied"],
  ["COC(=O)C(Cc1ccccc1)NS(=O)(=O)/N=C1\\NC(=O)NC1=C(Cl)Cl (stereo unspecified)", "SF-539 CNS", "Not satisfied"],
  ["Cc1sc2nc(NCc3ccccc3Cl)[nH]c(=O)c2c1C", "SF-539 CNS", "Not satisfied"],
  ["CCOC(=O)c1sc(NCC(=O)Nc2cccc([N+](=O)[O-])c2)c(C(=O)OCC)c1C", "SF-539 CNS", "Satisfied"],
  ["Clc1ccc2c(NCCCn3ccnc3)c3oc4ccccc4c3nc2c1", "SF-539 CNS", "Not satisfied"],
  ["NS(=O)(=O)c1cccc(Nc2nc(SCC(=O)c3ccc(Br)cc3)nc3ccccc23)c1", "SF-539 CNS", "Not satisfied"],
  ["N[C@@H](Cc1cn(-c2ccnc3ccccc23)nn1)C(=O)O", "SF-539 CNS", "Not satisfied"]
]}
